measured endpoint: melting point

Known melting point results, listed for orientation:
input: Query (compound): Cc1cn(-c2ccc(Nc3ncc4c(n3)C(c3ccc(F)cc3)CCC4)cc2F)cn1 (centres unmarked) ; field requested: melting point
output: 201 to 203 °C

input: Query (compound): COc1cc(Nc2ncc3c(n2)C(c2ccccn2)CCC3)ccc1-n1cnc(C)c1 (centres unmarked) ; field requested: melting point
output: 181 to 183 °C

# ---- query compound ----
input: Query (compound): COc1ccccc1C1CCCc2sc(Nc3ccc(-n4cnc(C)c4)c(F)c3)nc21 (centres unmarked) ; field requested: melting point
output: 227 to 230 °C

###

# Tested on: γ-secretase
# measurement notes: Cellular γ-secretase assay (Aβ42 secretion)
# Type: cell-based
# condition: inhibition of Aβ42 secretion; human neuroglioma H4 cells overexpressing human APP; 22 hrs incubation; read-out: EC50 in vitro
measured endpoint: log10 of EC50 (log10 of the value in nM)
Lab note - EC50 converted to log10 from values in nM.

Known log10 of EC50 results, listed for orientation:
input: Return log10 of EC50 measured with γ-secretase given this compound: Cc1cn(-c2ccc(Nc3ncc4c(n3)C(c3ccccc3)CCC4)cc2F)cn1 (stereo not shown) [Example 38]
output: 2.11

input: Return log10 of EC50 measured with γ-secretase given this compound: COc1cc(Nc2nc3c(s2)CCCC3c2ccccc2)ccc1-c1cnn(C)c1 (stereo not shown) [Example 91]
output: 2.38

input: Return log10 of EC50 measured with γ-secretase given this compound: COc1cc(Nc2nc3c(s2)CCCC3(C)c2ccccc2)ccc1-n1cnc(C)c1 (stereo not shown) [Example 30]
output: 2.48

input: Return log10 of EC50 measured with γ-secretase given this compound: Cc1cn(-c2ccc(Nc3nc4c(s3)CCCC4c3ccccc3)cc2)cn1 (stereo not shown) [Example 18]
output: 2.11

input: Return log10 of EC50 measured with γ-secretase given this compound: COc1cc(Nc2ncc3c(n2)C(c2ccccc2)CN(C(=O)OC(C)(C)C)C3)ccc1-n1cnc(C)c1 (stereo not shown) [Example 40]
output: 2.43

Further cases:
input: Return log10 of EC50 measured with γ-secretase given this compound: CCOC1CCCc2cnc(Nc3ccc(-n4cnc(C)c4)c(OC)c3)nc21 (stereo not shown) [Example 83]
output: 2.65

input: Return log10 of EC50 measured with γ-secretase given this compound: COc1cc(Nc2ncc3c(n2)C(C2CCCCC2)CCC3)ccc1-n1cnc(C)c1 (stereo not shown) [Example 71]
output: 2.67

input: Return log10 of EC50 measured with γ-secretase given this compound: COc1cc(Nc2nc3c(s2)CCCC3c2ccccc2)ccc1-c1cnco1 (stereo not shown) [Example 1]
output: 2.48

input: Return log10 of EC50 measured with γ-secretase given this compound: COc1cc(Nc2nc3c(s2)CCCC3c2ccccc2)ccc1-c1sc(C)nc1C (stereo not shown) [Example 93]
output: 2.33

input: Return log10 of EC50 measured with γ-secretase given this compound: COc1cc(Nc2nc3c(s2)CN(Cc2ccccc2)CC3c2ccc(Cl)c(F)c2)ccc1-n1cnc(C)c1 (stereo not shown) [Example 24]
output: 1.85

###

Reported melting point values for a set of compounds

input: Query (compound): COc1cc(Nc2ncc3c(n2)C(c2ccc(Cl)c(Cl)c2)CCC3)ccc1-n1cnc(C)c1 (stereo not drawn) [Example 49] ; field requested: melting point
output: 167 to 169 °C

input: Query (compound): COc1cc(Nc2ncc3c(n2)C(c2cc(Cl)ccc2Cl)CCCC3)ccc1-n1cnc(C)c1 (stereo not drawn) [Example 62] ; field requested: melting point
output: 218 to 220 °C

input: Query (compound): Cc1cn(-c2ccc(Nc3nc4c(s3)CCCC4c3ccccc3Cl)cc2F)cn1 (stereo not drawn) [Example 33] ; field requested: melting point
output: 204 to 206 °C

The origin of these recorded values is patent US7923450B2.
